Every entry's value here was drawn from patent US20160185837A1.

Form field: log10 of cAMP EC50 (one value per entry).
Target Or System: T1, rat GIP receptor (rat) (UniProt P43219)
T1 sequence (looked up): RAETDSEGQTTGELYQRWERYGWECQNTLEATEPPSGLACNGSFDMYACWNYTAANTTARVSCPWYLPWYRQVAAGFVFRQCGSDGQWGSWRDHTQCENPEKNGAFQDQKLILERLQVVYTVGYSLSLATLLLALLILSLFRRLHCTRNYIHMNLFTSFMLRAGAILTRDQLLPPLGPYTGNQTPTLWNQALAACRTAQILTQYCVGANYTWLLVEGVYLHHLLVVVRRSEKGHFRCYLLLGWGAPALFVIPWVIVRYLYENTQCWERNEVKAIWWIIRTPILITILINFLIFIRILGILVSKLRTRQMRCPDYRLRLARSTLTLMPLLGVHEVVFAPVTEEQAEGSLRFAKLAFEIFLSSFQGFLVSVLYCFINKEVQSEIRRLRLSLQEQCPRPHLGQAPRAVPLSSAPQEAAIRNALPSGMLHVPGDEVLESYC
Protocol Details: cell-based or functional assay
Heads up: the numbers are on a log10 scale; they represent cAMP EC50 in nM.

Illustrative cases are given below, each with its answer.
| Binder | log10 of cAMP EC50 |
| --- | --- |
| IP339 (Fc fusion) YSEGTFTSDYSKLLEKEAQRLFIEWLLAGGGGGGGSGGGGSGGGGSGGGGSGGGGSGGGGSA | -1.92 |
| IP311 (Fc fusion) YSEGTFISDYSIALAAAAIDDFVNWLLAGGGGGGGSGGGGSGGGGSGGGGSATHTCPPC | -0.37 |

Noted for IP321 (Fc fusion) YSEGTFISDYSIAMDKIHQQDFVNWLLAGGAAAGGSGSTASSGSGSATGGGGAATHTCPPC : its log10 of cAMP EC50 reads -2.10

Noted for IP343 (Fc fusion) YSEGTFTSDYAAAAERQAIDAFAAWLAAAAGGGGGSGGGGSGGGGSGGGGSA : its log10 of cAMP EC50 reads 2.04

Noted for IP387 (Fc fusion) YSEGTFISDYSIAMDKIHQQDFVNWLLAQKGGGGGSGGGGSGGGGSGGGGSGGGGSGGGGSGGGGSGGGGSACPPC : its log10 of cAMP EC50 reads -2.12

Noted for IP366 (Fc fusion) YSEGTFTSDYRMLKERQAIDEFIAWLLKGGAAAGGSGSTASSGSGSATGGGGAATHTCPPC : its log10 of cAMP EC50 reads -1.80

Noted for IP375 (Fc fusion) YSEGTHTSLFSKLLERQAIDEFIAWLLKGGAAAGGSGSTASSGSGSATGGGGAATHTCPPC : its log10 of cAMP EC50 reads -1.15

Noted for IP352 (Fc fusion) YSEGTFTSDYSKLLERQAIDEFIAMLLKGEGGGGGSGGGGSGGGGSGGGGSGGGGSGGGGSA : its log10 of cAMP EC50 reads -2.05
